Where do these numbers come from? They come from patent US6241963A.

Assay type: in vivo, Male Sprague-Dawley rats
MEASUREMENT_PARAMETERS: rats, iv, 2 min
Below, each entry is listed with its recorded Kidney uptake, 2 min.

Look over these answered cases.
COMPOUND	Kidney uptake, 2 min
CN1[C@H]2CC[C@@H]1[C@@H](C[N+]13CC[S][99Tc-]14(=[O])[S]CC[N]4CC3)[C@@H](c1ccc(Cl)cc1)C2 (single isomer, unassigned; peak a) [Peak A (1.19a)]	5.47 ± 1.04 % dose/organ
COC(=O)C1C(c2ccc(Cl)cc2)CC2CCC1N2CC[S][99Tc-]12(=[O])[S]CC[N+]1(C)CC[S]2 (centres unmarked) [Compound 3.25]	5.67 ± 0.94 % dose/organ
COC(=O)[C@H]1[C@@H](c2ccc(Cl)cc2)C[C@@H]2CC[C@H]1N2CCC[N+]12CC[S][99Tc-]13(=[O])[S]CC[N]3CC2 (single isomer, unassigned; peak b) [peak B of (2.6a)]	2.03 ± 0.45 % dose/organ
CN1[C@H]2CC[C@@H]1[C@@H](C[N+]13CC[S][99Tc-]14(=[O])[S]CC[N]4CC3)[C@@H](c1ccc(Cl)cc1)C2 (single isomer, unassigned; peak b) [peak B (1.19a)]	4.47 ± 0.69 % dose/organ

What measured Kidney uptake, 2 min goes with COC(=O)[C@H]1[C@@H](c2ccc(Cl)cc2)C[C@@H]2CC[C@H]1N2CCC[N+]12CC[S][99Tc-]13(=[O])[S]CC[N]3CC2 (single isomer, unassigned; peak a) [peak A of (2.6a)] ?
2.97 ± 0.09 % dose/organ

====

Below, each entry is listed with its recorded Skin uptake, 2 min.
Type: in vivo, Male Sprague-Dawley rats
MEASUREMENT_PARAMETERS: rats, iv, 2 min
Give just the number in % dose/organ; leave the unit off.

Look over these answered cases.
COMPOUND	Skin uptake, 2 min (% dose/organ)
CN1[C@H]2CC[C@@H]1[C@@H](C[N+]13CC[S][99Tc-]14(=[O])[S]CC[N]4CC3)[C@@H](c1ccc(Cl)cc1)C2 (single isomer, unassigned; peak b) [peak B (1.19a)]	3.43
COC(=O)C1C(c2ccc(Cl)cc2)CC2CCC1N2CC[S][99Tc-]12(=[O])[S]CC[N+]1(C)CC[S]2 (centres unmarked) [Compound 3.25]	2.94
CN1[C@H]2CC[C@@H]1[C@@H](C[N+]13CC[S][99Tc-]14(=[O])[S]CC[N]4CC3)[C@@H](c1ccc(Cl)cc1)C2 (single isomer, unassigned; peak a) [Peak A (1.19a)]	2.73
COC(=O)[C@H]1[C@@H](c2ccc(Cl)cc2)C[C@@H]2CC[C@H]1N2CCC[N+]12CC[S][99Tc-]13(=[O])[S]CC[N]3CC2 (single isomer, unassigned; peak b) [peak B of (2.6a)]	1.25

Next compound, please.
What measured Skin uptake, 2 min goes with COC(=O)[C@H]1[C@@H](c2ccc(Cl)cc2)C[C@@H]2CC[C@H]1N2CCC[N+]12CC[S][99Tc-]13(=[O])[S]CC[N]3CC2 (single isomer, unassigned; peak a) [peak A of (2.6a)] ?
1.59

====

Assay type: in vivo, Male Sprague-Dawley rats
MEASUREMENT_PARAMETERS: rats, iv, 2 min
The threshold is inclusive: Brain uptake, 2 min of exactly 0.3 % dose/organ counts as 1.0; values below receive 0.0.

COMPOUND	LABEL_CLASS
CN1[C@H]2CC[C@@H]1[C@@H](C[N+]13CC[S][99Tc-]14(=[O])[S]CC[N]4CC3)[C@@H](c1ccc(Br)cc1)C2 (some centres unmarked) [Compound 1.20c]	1.0
CN1[C@H]2CC[C@@H]1[C@@H](C(=O)[N+]13CC[S][99Tc-]14(=[O])[S]CC[N]4CC3)[C@@H](c1ccc(Cl)cc1)C2 (some centres unmarked) [Compound 1.19b]	1.0

Check the entry COC(=O)C1C(c2ccc(Cl)cc2)CC2CCC1N2CC[S][99Tc-]12(=[O])[S]CC[N+]1(C)CC[S]2 (centres unmarked) : does Brain uptake, 2 min equal or exceed 0.3 % dose/organ?
0.0

Check the entry COC(=O)[C@H]1[C@@H](c2ccc(Cl)cc2)C[C@@H]2CC[C@H]1N2CCC[N+]12CC[S][99Tc-]13(=[O])[S]CC[N]3CC2 (single isomer, unassigned; peak b) [peak B of (2.6a)] : does Brain uptake, 2 min equal or exceed 0.3 % dose/organ?
0.0

Check the entry COC(=O)[C@H]1[C@@H](c2ccc(Cl)cc2)C[C@@H]2CC[C@H]1N2CCC[N+]12CC[S][99Tc-]13(=[O])[S]CC[N]3CC2 (single isomer, unassigned; peak a) [peak A of (2.6a)] : does Brain uptake, 2 min equal or exceed 0.3 % dose/organ?
0.0
